- testedTarget: Recombinant human PARP1 protein (Homo sapiens)
- assayComment: PARP1 enzymatic inhibitory activity, histone substrate, chemiluminescent ELISA
- protocolConditions: PARP2 IC50 over PARP1 IC50
measurementKind: PARP1/2 Fold selectivity

Form: molecule = CNC(=O)c1ccc(N2CCN(C(C)c3ccc4c(c3F)NC(=O)N3CC5(CC5)N=C43)CC2)c(F)n1 (stereo not drawn) ; PARP1/2 Fold selectivity = 541.5

I. CNC(=O)c1ccc(N2CCN(C(C)c3ccc4c(c3)[nH]c(=O)c3cccn34)CC2)cn1 (stereo not drawn)
II. CNC(=O)c1ccc(N2CCN(C(C)c3ccc4c([nH]c(=O)c5ccnn54)c3F)CC2)c(F)n1 (stereo not drawn)
Would you kindly point out which of I and II has the smaller PARP1/2 Fold selectivity figure? Respond with the label that goes with your answer.
I

P. CNC(=O)c1ccc(N2CCN(Cc3ccc4c(c3F)NC(=O)N3CC(C)N=C43)CC2)c(F)n1 (stereo not drawn)
Q. CNC(=O)c1ccc(N2CCN(C(C)c3ccc4c(c3)[nH]c(=O)c3ccnn34)CC2)c(F)n1 (stereo not drawn)
R. CNC(=O)c1ccc(OC2CCN(Cc3ccc4c(c3)[nH]c(=O)c3ccnn34)C2)cn1 (stereo not drawn)
# rank_down: sort by PARP1/2 Fold selectivity, max first Please write the labels in the order that was asked for.
P, Q, R

A. CNC(=O)c1ccc(N2CCN(Cc3ccc4c(c3)[nH]c(=O)c3nn(C)cc34)CC2)c(F)n1
B. CNC(=O)c1ccc(N2CCN(C(C)c3ccc4c(c3)[nH]c(=O)c3cnn(C)c34)CC2)c(F)n1 (stereo not drawn)
Short answer wanted: higher PARP1/2 Fold selectivity, A or B ? Respond with the label that goes with your answer.
A
(A: 447.6, B: 86.8)

---

- testedTarget: Recombinant human PARP1 protein (Homo sapiens, UniProt P09874)
- Sequence (P09874 whole entry): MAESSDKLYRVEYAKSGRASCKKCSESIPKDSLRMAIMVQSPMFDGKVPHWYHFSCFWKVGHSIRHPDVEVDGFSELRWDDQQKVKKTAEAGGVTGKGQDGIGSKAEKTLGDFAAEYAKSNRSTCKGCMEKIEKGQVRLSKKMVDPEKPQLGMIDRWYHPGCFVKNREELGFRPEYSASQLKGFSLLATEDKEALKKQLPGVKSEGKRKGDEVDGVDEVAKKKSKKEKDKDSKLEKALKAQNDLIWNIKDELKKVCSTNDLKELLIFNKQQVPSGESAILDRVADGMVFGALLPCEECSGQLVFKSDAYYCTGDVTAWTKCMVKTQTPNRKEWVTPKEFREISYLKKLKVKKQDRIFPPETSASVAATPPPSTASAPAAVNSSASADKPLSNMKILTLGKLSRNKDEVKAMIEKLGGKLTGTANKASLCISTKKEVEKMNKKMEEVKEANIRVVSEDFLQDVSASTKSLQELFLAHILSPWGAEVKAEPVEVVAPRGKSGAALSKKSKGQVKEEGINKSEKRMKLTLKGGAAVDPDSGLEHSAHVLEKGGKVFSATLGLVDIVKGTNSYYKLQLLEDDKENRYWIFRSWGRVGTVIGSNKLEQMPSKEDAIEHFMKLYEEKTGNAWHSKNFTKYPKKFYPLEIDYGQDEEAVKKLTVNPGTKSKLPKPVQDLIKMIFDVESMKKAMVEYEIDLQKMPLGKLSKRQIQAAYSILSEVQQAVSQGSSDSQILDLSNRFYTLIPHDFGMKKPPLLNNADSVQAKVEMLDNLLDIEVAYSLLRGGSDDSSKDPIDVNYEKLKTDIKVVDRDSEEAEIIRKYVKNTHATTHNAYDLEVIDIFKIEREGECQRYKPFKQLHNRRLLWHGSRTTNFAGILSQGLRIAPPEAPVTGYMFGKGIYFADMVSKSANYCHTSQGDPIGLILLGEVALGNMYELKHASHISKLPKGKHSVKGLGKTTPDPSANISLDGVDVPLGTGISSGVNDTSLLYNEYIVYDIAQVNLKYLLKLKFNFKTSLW
- assayComment: PARP1 enzymatic inhibitory activity, histone substrate, chemiluminescent ELISA
- protocolConditions: PARP2 IC50 over PARP1 IC50
measurementKind: PARP1/2 Fold selectivity

Form: molecule = CNC(=O)c1ccc(N2CCN(Cc3ccc4c(c3F)NC(=O)N3C4=NC[C@@H]3C)CC2)c(C)n1 [Compound 155] ; PARP1/2 Fold selectivity = 611.4

I. CNC(=O)c1ccc(N2CCN(C(C)c3ccc4c([nH]c(=O)c5cccn54)c3F)CC2)cn1 (stereo not drawn) [Compound 8]
II. CCNC(=O)c1ccc(N2CCN(Cc3ccc4c(c3F)NC(=O)N3C[C@@H](C)N=C43)CC2)c(Cl)n1 [Compound 185]
Short answer wanted: higher PARP1/2 Fold selectivity, I or II ? Respond with the label that goes with your answer.
II

---

- System: MDR1
- assayComment: MDR1-MDCK II cell model of bidirectional permeability
- Type: in vitro ADME
- protocolConditions: dog, apical-to-basolateral, 2 µM, 2.5 h
Papp A→B at 2.5 h, 2 µM values, listed per item
API: value field is a number in ×10⁻⁶ cm/s; no unit string.

Form: compound = CNC(=O)c1ccc(N2CCN(Cc3ccc4c(c3F)NC(=O)N3C[C@@H](C)N=C43)CC2)c(F)n1 [Compound 132] ; Papp A→B at 2.5 h, 2 µM = 12.8

Form: compound = CNC(=O)c1ccc(N2CCN(Cc3ccc4nc(C)c(=O)[nH]c4c3F)CC2)c(F)n1 [AZD-9574] ; Papp A→B at 2.5 h, 2 µM = 19.4

Continuing:
Form: compound = CNC(=O)c1ccc(N2CCN(Cc3ccc4c(c3F)NC(=O)N3CCCN=C43)CC2)c(Cl)n1 [Compound 141] ; Papp A→B at 2.5 h, 2 µM = 16.2
